Could you please report measured pIC50 for the items listed next?
# subject.of.test: Bromodomain-containing protein 4 (Homo sapiens, UniProt O60885)
# method.description: Inhibition of HYSGRGK(Ac)GGK(Ac)GLGK(Ac)GGAK(Ac)RHRK(Biotin)-OH binding to recombinant human His6-tagged BRD4 bromodomain 1 (N44 to E168 residues) expressed in Escherichia coli BL21 (DE3) cells measured after 2 hrs by Alphascreen assay
Give bare numbers, as −log10 of the molar value.

Here's what some known entries look like.
COc1cc2onc(C)c2cc1NS(=O)(=O)c1cc(Cl)ccc1OC
6.80
COc1ccc(Br)cc1S(=O)(=O)Nc1cc2c(C)noc2cc1OCC(=O)NCCNC(C)=O
6.12
COc1cc2onc(C)c2cc1NS(=O)(=O)c1cc(Cl)ccc1Cl
6.36

Now for a further molecule.
// query For the molecule `Cc1cc2onc(C)c2cc1NS(=O)(=O)c1ccccc1Cl` , what pIC50 is on record?
// result 5.80

###

# subject.of.test: CREB-binding protein (Homo sapiens)
# method.description: Binding affinity to human recombinant His6-tagged CREBBP (R1081 to G1197 residues) expressed in Escherichia coli BL21 (DE3) cells assessed as change in melting temperature at 200 uM incubated for 30 mins by SYPRO orange dye based thermal shift assay
assay.readout: ΔTm
Answer by giving the amount and then stating its unit.

// input: 3 molecules below; output: ΔTm for each
1. COc1cc2onc(C)c2cc1NS(=O)(=O)c1cc(Br)ccc1OC
2. Cc1noc2c(Br)cc(-c3nc4ccc(N5CCOCC5)cc4n3CC3CCCCC3)cc12
3. CNc1cc2onc(C)c2cc1NS(=O)(=O)c1cc(Br)ccc1OC

// result
1. 1.4 °C
2. 0 °C
3. 2.1 °C

// query Given the entry `Cc1noc2ccc(-c3nc4ccc(N5CCOC[C@@H]5C)cc4n3CC3CCCCC3)cc12` , report its measured ΔTm.
// result 0.3 °C

###

For each record, write down the corresponding ΔTm.
# subject.of.test: Bromodomain adjacent to zinc finger domain protein 2B (Homo sapiens) (UniProt Q9UIF8)
# Sequence (Q9UIF8 whole entry, the tested form may be a part): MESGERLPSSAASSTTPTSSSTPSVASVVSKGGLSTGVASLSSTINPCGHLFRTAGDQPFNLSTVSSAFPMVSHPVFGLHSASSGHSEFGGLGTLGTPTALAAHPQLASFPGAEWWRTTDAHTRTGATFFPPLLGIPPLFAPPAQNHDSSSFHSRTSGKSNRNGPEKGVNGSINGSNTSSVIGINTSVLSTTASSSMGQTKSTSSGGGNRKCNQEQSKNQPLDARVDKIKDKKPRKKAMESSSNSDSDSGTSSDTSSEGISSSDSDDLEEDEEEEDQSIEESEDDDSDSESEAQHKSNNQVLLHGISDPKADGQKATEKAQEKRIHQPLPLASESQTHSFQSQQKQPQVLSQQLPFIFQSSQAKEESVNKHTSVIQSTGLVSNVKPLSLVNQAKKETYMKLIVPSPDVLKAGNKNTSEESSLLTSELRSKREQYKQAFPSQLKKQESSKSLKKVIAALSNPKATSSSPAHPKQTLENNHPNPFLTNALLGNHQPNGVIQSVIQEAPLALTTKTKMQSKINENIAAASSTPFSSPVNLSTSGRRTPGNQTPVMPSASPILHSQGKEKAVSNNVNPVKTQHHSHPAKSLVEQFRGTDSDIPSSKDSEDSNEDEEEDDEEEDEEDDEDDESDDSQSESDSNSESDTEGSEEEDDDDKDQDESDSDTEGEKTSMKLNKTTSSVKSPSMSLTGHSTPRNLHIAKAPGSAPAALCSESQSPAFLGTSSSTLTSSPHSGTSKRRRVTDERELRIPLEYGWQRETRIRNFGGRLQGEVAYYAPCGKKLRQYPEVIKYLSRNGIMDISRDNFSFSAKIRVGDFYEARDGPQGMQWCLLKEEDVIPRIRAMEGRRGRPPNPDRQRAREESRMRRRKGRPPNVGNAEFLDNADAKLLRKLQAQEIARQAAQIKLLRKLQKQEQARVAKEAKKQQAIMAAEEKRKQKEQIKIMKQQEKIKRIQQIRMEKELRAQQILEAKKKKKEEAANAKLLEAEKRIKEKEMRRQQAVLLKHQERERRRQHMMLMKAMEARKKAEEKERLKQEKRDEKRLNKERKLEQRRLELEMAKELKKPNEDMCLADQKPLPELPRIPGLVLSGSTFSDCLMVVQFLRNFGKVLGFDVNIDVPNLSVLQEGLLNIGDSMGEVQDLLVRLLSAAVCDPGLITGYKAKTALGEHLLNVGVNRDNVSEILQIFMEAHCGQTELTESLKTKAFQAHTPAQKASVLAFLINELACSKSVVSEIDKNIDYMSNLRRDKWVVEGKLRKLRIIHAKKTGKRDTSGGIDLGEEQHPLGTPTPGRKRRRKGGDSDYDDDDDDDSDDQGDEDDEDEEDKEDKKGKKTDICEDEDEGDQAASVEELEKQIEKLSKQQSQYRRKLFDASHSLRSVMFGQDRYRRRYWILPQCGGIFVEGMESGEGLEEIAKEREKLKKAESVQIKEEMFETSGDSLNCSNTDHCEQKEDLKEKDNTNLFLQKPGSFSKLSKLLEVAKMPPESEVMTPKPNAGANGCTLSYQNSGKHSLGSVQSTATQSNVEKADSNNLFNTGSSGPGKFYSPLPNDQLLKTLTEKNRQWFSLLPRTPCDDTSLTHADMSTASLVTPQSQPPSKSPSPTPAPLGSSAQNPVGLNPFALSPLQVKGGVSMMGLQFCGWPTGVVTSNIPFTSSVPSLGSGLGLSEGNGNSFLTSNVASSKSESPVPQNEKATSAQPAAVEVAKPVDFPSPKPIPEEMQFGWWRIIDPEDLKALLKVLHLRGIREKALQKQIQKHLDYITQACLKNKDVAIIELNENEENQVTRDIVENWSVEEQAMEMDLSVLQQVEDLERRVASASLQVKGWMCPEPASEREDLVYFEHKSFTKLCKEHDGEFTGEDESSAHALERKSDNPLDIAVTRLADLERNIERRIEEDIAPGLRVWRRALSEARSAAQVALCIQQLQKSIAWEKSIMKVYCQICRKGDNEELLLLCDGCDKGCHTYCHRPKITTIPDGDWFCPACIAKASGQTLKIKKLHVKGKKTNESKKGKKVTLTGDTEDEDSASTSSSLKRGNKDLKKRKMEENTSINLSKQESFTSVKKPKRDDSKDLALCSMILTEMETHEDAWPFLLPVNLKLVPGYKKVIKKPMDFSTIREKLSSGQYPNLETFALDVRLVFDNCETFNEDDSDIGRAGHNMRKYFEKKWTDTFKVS
# method.description: Binding affinity to human recombinant His6-tagged BAZ2B (S1858 to S1972 residues) expressed in Escherichia coli BL21 (DE3) cells assessed as change in melting temperature at 200 uM incubated for 30 mins by SYPRO orange dye based thermal shift assay
Give bare numbers, in °C.

COc1cc2onc(C)c2cc1NS(=O)(=O)c1cc(Br)ccc1OC
0
Cc1noc2ccc(-c3nc4ccc(N5CCOC[C@@H]5C)cc4n3CC3CCCCC3)cc12
-0.6
Cc1noc2c(Br)cc(-c3nc4ccc(N5CCOCC5)cc4n3CC3CCCCC3)cc12
-0.6

// query Value lookup for ΔTm; key = `CNc1cc2onc(C)c2cc1NS(=O)(=O)c1cc(Br)ccc1OC`
// result 0.3

###

Exercise: state measured ΔTm for each of the compounds provided.
# subject.of.test: Transcription initiation factor TFIID subunit 1 (Homo sapiens) (UniProt P21675)
# Sequence (P21675 whole entry, the tested form may be a part): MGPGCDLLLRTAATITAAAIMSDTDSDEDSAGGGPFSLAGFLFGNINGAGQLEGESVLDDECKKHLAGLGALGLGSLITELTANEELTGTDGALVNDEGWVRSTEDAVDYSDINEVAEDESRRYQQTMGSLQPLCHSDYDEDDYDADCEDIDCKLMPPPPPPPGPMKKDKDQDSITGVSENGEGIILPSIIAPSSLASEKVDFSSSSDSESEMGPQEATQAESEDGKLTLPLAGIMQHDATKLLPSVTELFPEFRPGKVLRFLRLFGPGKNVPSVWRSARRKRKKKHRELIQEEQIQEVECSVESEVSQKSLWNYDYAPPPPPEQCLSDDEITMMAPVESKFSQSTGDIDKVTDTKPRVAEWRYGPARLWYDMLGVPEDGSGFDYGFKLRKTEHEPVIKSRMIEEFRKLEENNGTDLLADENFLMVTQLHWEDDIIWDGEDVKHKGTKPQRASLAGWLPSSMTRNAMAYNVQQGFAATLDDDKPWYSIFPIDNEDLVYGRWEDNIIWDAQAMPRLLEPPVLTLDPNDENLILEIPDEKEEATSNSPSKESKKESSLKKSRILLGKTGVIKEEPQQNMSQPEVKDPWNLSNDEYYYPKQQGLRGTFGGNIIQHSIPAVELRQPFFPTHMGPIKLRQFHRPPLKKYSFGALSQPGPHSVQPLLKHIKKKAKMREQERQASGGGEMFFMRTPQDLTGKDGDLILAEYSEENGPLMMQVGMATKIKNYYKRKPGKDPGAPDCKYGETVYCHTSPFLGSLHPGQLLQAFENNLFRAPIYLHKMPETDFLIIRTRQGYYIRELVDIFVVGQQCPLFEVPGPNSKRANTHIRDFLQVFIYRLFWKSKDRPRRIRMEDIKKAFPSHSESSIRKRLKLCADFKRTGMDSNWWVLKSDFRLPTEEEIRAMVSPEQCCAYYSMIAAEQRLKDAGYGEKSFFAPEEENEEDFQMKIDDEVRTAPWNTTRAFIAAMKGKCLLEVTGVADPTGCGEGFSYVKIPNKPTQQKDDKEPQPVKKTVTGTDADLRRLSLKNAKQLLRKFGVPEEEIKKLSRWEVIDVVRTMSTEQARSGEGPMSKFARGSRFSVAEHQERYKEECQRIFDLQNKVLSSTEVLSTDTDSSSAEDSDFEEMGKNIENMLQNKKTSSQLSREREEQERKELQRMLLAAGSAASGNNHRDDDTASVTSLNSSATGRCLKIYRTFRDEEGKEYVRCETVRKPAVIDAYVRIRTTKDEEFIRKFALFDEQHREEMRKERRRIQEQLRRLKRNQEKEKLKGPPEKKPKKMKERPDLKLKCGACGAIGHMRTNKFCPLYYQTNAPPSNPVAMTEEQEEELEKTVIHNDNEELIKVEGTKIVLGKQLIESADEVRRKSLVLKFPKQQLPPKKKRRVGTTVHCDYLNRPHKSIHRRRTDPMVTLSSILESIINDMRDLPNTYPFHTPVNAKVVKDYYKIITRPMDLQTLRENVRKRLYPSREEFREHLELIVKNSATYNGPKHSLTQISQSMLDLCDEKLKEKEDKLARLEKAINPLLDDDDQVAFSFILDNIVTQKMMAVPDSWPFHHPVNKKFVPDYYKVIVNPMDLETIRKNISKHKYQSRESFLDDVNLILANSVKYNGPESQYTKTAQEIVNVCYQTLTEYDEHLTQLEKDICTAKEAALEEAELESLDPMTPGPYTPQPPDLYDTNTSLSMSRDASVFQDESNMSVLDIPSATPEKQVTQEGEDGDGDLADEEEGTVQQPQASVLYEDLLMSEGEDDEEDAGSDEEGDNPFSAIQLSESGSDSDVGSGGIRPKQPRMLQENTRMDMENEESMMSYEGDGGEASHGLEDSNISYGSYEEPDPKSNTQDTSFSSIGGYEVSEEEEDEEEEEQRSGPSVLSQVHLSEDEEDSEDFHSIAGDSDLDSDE
# method.description: Binding affinity to human recombinant His6-tagged TAF1 bromodomain 1 (R1377 to D1503 residues) expressed in Escherichia coli BL21 (DE3) cells assessed as change in melting temperature at 200 uM incubated for 30 mins by SYPRO orange dye based thermal shift assay
Numbers only, in °C.

Before answering, review these 3 worked examples.
CNc1cc2onc(C)c2cc1NS(=O)(=O)c1cc(Br)ccc1OC
-0.1
Cc1noc2c(Br)cc(-c3nc4ccc(N5CCOCC5)cc4n3CC3CCCCC3)cc12
-0.6
COc1cc2onc(C)c2cc1NS(=O)(=O)c1cc(Br)ccc1OC
0.1

Here is another compound to look at.
// query Sample `Cc1noc2ccc(-c3nc4ccc(N5CCOC[C@@H]5C)cc4n3CC3CCCCC3)cc12` — what was its ΔTm?
// result -0.9

###

Assignment: determine reported ΔTm for the given molecules.
# subject.of.test: Bromodomain-containing protein 4 (Homo sapiens)
# method.description: Binding affinity to human recombinant His6-tagged BRD4 bromodomain 1 (N44 to E168 residues) expressed in Escherichia coli BL21 (DE3) cells assessed as change in melting temperature at 200 uM incubated for 30 mins by SYPRO orange dye based thermal shift assay
Field: value (include unit after the number)

Cc1cc2onc(C)c2cc1NS(=O)(=O)c1ccc(F)cc1
2 °C
Cc1noc2c(Br)cc(-c3nc4ccc(N5CCOC[C@@H]5C)cc4n3CC3CCCCC3)cc12
7.2 °C
CNc1cc2onc(C)c2cc1NS(=O)(=O)c1cc(Br)ccc1OC
9.2 °C

// below: ΔTm requested for another molecule
// query Which ΔTm is reported for this molecule? `Cc1cc2onc(C)c2cc1NS(=O)(=O)c1ccc([N+](=O)[O-])cc1`
// result 0.5 °C
